Data provenance: PubChem BioAssay AID1963426

Examples of compounds with documented viability, T/C follow.
# System: 186277-243-T-J2-PDC complex spheroid growth, % test/control;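 also: spheroids exposed to agents for 7 days; 100% = DMSO vehicle control wells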
# assayText: Anticancer human tumor 186277-243-T-J2-PDC patient-derived colon adenocarcinoma cell line growth inhibition [Asc]
# measurementSetup: second compound 3.16 µM; first compound 3.16 µM; hits give low values
Report only the number, with the unit % understood.

For orientation, consider the following solved cases.
1. C=C(F)C(=O)N1CCN(c2nc(OCC3CCCN3C)nc3c2CCN(c2cccc4cccc(Cl)c24)C3)CC1CC#N (centres undefined) + Cc1c(S(C)(=O)=O)c(-c2cc(F)cc(N3CCN(c4ccc(NS(=O)(=O)c5ccc(NC(CCN6CCC(C(=O)OCCCP(=O)(O)O)CC6)CSc6ccccc6)c(S(=O)(=O)C(F)(F)F)c5)cc4)CC3)c2)c(-c2ccc(Cl)cc2)n1C(C)C | 24.2
2. O=C(c1cc(Cc2n[nH]c(=O)c3ccccc23)ccc1F)N1CCN(C(=O)C2CC2)CC1 + Cc1c(S(C)(=O)=O)c(-c2cc(F)cc(N3CCN(c4ccc(NS(=O)(=O)c5ccc(NC(CCN6CCC(C(=O)OCCCP(=O)(O)O)CC6)CSc6ccccc6)c(S(=O)(=O)C(F)(F)F)c5)cc4)CC3)c2)c(-c2ccc(Cl)cc2)n1C(C)C | 60.5
3. C#Cc1c(F)ccc2cc(O)cc(-c3ncc4c(N5CC6CCC(C5)N6)nc(OCC56CCCN5CC(F)C6)nc4c3F)c12 (centres undefined) + Cc1c(S(C)(=O)=O)c(-c2cc(F)cc(N3CCN(c4ccc(NS(=O)(=O)c5ccc(NC(CCN6CCC(C(=O)OCCCP(=O)(O)O)CC6)CSc6ccccc6)c(S(=O)(=O)C(F)(F)F)c5)cc4)CC3)c2)c(-c2ccc(Cl)cc2)n1C(C)C | 1.51

Could you now look at the following compound, please?
**Q:** Give the measured viability, T/C of C=CC(=O)N1CCN(c2nc(=O)n(-c3c(C)ccnc3C(C)C)c3nc(-c4c(O)cccc4F)c(F)cc23)C(C)C1 (centres undefined) + Cc1c(S(C)(=O)=O)c(-c2cc(F)cc(N3CCN(c4ccc(NS(=O)(=O)c5ccc(NC(CCN6CCC(C(=O)OCCCP(=O)(O)O)CC6)CSc6ccccc6)c(S(=O)(=O)C(F)(F)F)c5)cc4)CC3)c2)c(-c2ccc(Cl)cc2)n1C(C)C .
**A:** 116
